Would you mind telling me the reported koff,minor (minor fast phase of biphasic dissociation) of each entry?
testedOn: T1, ARM repeat domain of human β-catenin (residues 134–671) (human, UniProt P35222 134-671)
T1 construct: β-catenin, human, ARM repeat domain, residues 134–671; Plasmid was a gift from W.I. Weis; source: E. coli C41, purified (glutathione-Sepharose 4B, thrombin cleavage on resin, Mono-Q)
T1 sequence (looked up): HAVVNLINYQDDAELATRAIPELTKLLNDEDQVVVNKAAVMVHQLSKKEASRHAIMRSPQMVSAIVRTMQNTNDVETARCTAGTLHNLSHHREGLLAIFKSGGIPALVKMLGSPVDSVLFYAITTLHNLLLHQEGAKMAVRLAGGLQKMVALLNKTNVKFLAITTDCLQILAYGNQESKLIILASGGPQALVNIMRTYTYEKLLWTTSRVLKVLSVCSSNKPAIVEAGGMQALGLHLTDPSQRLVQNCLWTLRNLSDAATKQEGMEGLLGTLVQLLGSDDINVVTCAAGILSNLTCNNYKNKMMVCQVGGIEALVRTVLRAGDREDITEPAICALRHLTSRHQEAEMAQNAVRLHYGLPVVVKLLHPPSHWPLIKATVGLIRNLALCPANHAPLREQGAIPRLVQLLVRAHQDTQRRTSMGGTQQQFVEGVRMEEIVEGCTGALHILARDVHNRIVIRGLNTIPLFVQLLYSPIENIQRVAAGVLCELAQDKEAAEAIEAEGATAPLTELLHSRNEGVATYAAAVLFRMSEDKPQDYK
assay: fluorescence spectroscopy kinetics (dissociation, fluorimeter); pre-formed 1:1 complex of labelled TCF7L2 and β-catenin mixed 1:1 with 50-times molar excess of unlabelled TCF7L2; PBS, 1 mM DTT, 15 °C; fitted to sums of exponential phases
assayContext: both partners purified
No end group written: not given here.
One number for each entry, in s⁻¹.

Sample records with koff,minor (minor fast phase of biphasic dissociation):
TCF7L2 (1–54) S31C E17A, fluorescein-labelled (domain or fragment, UniProt Q9NQB0 1-54, looked up, One extra serine is left behind after thrombin cleavage of the tag; source: E. coli C41, purified (Ni-NTA, thrombin cleavage, Superdex 75), labelled with fluorescein maleimide) MPQLNGGGGDDLGANDALISFKDEGEQEEKC(fluorescein maleimide)SENSSAERDLADVKSSLVNESET    0.0283
TCF7L2 (1–54) S31C L12A, fluorescein-labelled (domain or fragment, UniProt Q9NQB0 1-54, looked up, One extra serine is left behind after thrombin cleavage of the tag; source: E. coli C41, purified (Ni-NTA, thrombin cleavage, Superdex 75), labelled with fluorescein maleimide) MPQLNGGGGDDAGANDELISFKDEGEQEEKC(fluorescein maleimide)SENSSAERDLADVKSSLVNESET    0.00264
TCF7L2 (1–54) S31C E26A, fluorescein-labelled (domain or fragment, UniProt Q9NQB0 1-54, looked up, One extra serine is left behind after thrombin cleavage of the tag; source: E. coli C41, purified (Ni-NTA, thrombin cleavage, Superdex 75), labelled with fluorescein maleimide) MPQLNGGGGDDLGANDELISFKDEGAQEEKC(fluorescein maleimide)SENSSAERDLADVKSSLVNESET    0.00166

Hi there! I need koff,minor (minor fast phase of biphasic dissociation) for each item below, if you can.
1. TCF7L2 (1–54) S31C N15A, fluorescein-labelled (domain or fragment, UniProt Q9NQB0 1-54, looked up, One extra serine is left behind after thrombin cleavage of the tag; source: E. coli C41, purified (Ni-NTA, thrombin cleavage, Superdex 75), labelled with fluorescein maleimide) MPQLNGGGGDDLGAADELISFKDEGEQEEKC(fluorescein maleimide)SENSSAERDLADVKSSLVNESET
2. TCF7L2 (1–54) S31C D23A E24A E26A E28A E29A (5X), fluorescein-labelled (domain or fragment, UniProt Q9NQB0 1-54, looked up, One extra serine is left behind after thrombin cleavage of the tag; also called quintuple mutant; 5X variant; source: E. coli C41, purified (Ni-NTA, thrombin cleavage, Superdex 75), labelled with fluorescein maleimide) MPQLNGGGGDDLGANDELISFKAAGAQAAKC(fluorescein maleimide)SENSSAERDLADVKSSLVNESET
3. TCF7L2 (1–54) S31C K45A, fluorescein-labelled (domain or fragment, UniProt Q9NQB0 1-54, looked up, One extra serine is left behind after thrombin cleavage of the tag; source: E. coli C41, purified (Ni-NTA, thrombin cleavage, Superdex 75), labelled with fluorescein maleimide) MPQLNGGGGDDLGANDELISFKDEGEQEEKC(fluorescein maleimide)SENSSAERDLADVASSLVNESET
4. TCF7L2 (1–54) S31C, labelled with fluorescein maleimide at Cys31 (domain or fragment, UniProt Q9NQB0 1-54, looked up, One extra serine is left behind after thrombin cleavage of the tag; also called fluorescein-labelled WT; fluorescent-labelled WT TCF7L2 (1–54); source: E. coli C41, purified (Ni-NTA, thrombin cleavage, Superdex 75), labelled with fluorescein maleimide) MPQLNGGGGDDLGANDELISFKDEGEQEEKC(fluorescein maleimide)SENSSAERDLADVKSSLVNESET
5. TCF7L2 (1–54) S31C L48A, fluorescein-labelled (domain or fragment, UniProt Q9NQB0 1-54, looked up, One extra serine is left behind after thrombin cleavage of the tag; source: E. coli C41, purified (Ni-NTA, thrombin cleavage, Superdex 75), labelled with fluorescein maleimide) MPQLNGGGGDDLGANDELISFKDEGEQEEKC(fluorescein maleimide)SENSSAERDLADVKSSAVNESET

Response given:
1: 0.00365; 2: 0.00234; 3: 0.015; 4: 0.00152; 5: 0.00424

# per-item lookup of koff,minor (minor fast phase of biphasic dissociation); items listed below
1. TCF7L2 (1–54) S31C E29A, fluorescein-labelled (domain or fragment, UniProt Q9NQB0 1-54, looked up, One extra serine is left behind after thrombin cleavage of the tag; source: E. coli C41, purified (Ni-NTA, thrombin cleavage, Superdex 75), labelled with fluorescein maleimide) MPQLNGGGGDDLGANDELISFKDEGEQEAKC(fluorescein maleimide)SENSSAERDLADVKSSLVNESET
2. TCF7L2 (1–54) S31C E24A, fluorescein-labelled (domain or fragment, UniProt Q9NQB0 1-54, looked up, One extra serine is left behind after thrombin cleavage of the tag; source: E. coli C41, purified (Ni-NTA, thrombin cleavage, Superdex 75), labelled with fluorescein maleimide) MPQLNGGGGDDLGANDELISFKDAGEQEEKC(fluorescein maleimide)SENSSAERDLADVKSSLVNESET
3. TCF7L2 (1–54) S31C E24A E29A, fluorescein-labelled (domain or fragment, UniProt Q9NQB0 1-54, looked up, One extra serine is left behind after thrombin cleavage of the tag; also called double mutant; source: E. coli C41, purified (Ni-NTA, thrombin cleavage, Superdex 75), labelled with fluorescein maleimide) MPQLNGGGGDDLGANDELISFKDAGEQEAKC(fluorescein maleimide)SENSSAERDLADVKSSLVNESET

Response given:
1. 0.00245
2. 0.00153
3. 0.00173
